- Measured on: Tyrosine-protein kinase Fes/Fps (Homo sapiens) (UniProt P07332)
- Sequence (P07332 whole entry): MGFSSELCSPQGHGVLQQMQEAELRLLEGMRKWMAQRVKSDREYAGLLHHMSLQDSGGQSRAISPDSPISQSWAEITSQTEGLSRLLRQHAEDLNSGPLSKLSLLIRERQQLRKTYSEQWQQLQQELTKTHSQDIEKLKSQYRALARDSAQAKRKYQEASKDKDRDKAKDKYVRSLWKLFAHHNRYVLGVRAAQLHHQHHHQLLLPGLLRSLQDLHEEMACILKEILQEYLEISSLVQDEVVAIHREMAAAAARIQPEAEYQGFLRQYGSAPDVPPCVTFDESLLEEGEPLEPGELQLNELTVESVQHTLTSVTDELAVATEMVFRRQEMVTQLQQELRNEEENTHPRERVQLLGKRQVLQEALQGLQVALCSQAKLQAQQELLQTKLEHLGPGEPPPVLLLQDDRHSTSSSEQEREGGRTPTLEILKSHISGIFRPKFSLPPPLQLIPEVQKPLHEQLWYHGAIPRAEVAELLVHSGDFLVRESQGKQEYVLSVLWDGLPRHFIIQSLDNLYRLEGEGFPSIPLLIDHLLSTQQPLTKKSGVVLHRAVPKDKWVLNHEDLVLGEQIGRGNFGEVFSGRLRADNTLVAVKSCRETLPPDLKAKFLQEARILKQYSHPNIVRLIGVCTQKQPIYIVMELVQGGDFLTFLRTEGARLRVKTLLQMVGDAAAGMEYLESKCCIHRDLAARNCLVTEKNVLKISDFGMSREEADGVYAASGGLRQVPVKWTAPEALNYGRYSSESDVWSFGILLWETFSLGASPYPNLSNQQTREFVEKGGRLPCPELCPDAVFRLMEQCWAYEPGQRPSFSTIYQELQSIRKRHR
- Settings: at 1 µM
Measured metric: inhibition (%)
Just the number please, in %, no unit attached.

Worked examples follow.
Compound: CS(=O)(=O)CCNCc1nc(-c2ccc3ncnc(Nc4ccc(OCc5cccc(C(F)(F)F)c5)cc4)c3c2)cs1
Measured metric: inhibition
Display unit: %
Observed value: 3.22

Compound: NC(=O)c1sc(-n2cnc3ccccc32)cc1OCc1ccccc1Br
Measured metric: inhibition
Display unit: %
Observed value: 4.01

Compound: CN(C)c1cc2c(Nc3ccc4c(cnn4Cc4ccccc4)c3)ncnc2cn1
Measured metric: inhibition
Display unit: %
Observed value: 3.25

Input: // lookup inhibition | system=Tyrosine-protein kinase Fes/Fps (Homo sapiens) (UniProt P07332) | key= Cc1ccc2c(c1)/C(=N/Nc1ccc(S(N)(=O)=O)cc1)C(=O)N2;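 also: mean inhibition of FES from the GSK PKIS kinase inhibitor screening set, assayed by Nanosyn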
Output: 0.85

Input: Then what about the compound COc1cc(Nc2nccc(-c3cnn4ncccc34)n2)cc(OC)c1 ?
Output: 53.2

Input: Then what about the compound NS(=O)(=O)c1ccc(NC=C2C(=O)Nc3ccc4ncsc4c32)cc1 ?
Output: 17.1

Input: Then what about the compound CC(C)c1ccc(Nc2nccc(-c3cnn4ncccc34)n2)cc1 ?
Output: 25.5

Input: Then what about the compound CCCN1CCCC(c2ccc(Nc3nc(Nc4cc(F)ccc4C(N)=O)c4cc[nH]c4n3)c(OC)c2)C1 (stereo not given) ?
Output: 81.3

Input: Then what about the compound CN(c1ccc(NC(=O)Nc2ccc(OC(F)(F)F)cc2)cc1)c1ccnc(Nc2cccc(S(N)(=O)=O)c2)n1 ?
Output: 21.8

Input: Then what about the compound COc1cccc(-n2ncc3c(N/N=C/c4ccc(C)cc4)ncnc32)c1 ?
Output: 10.3
